experiment: Pharmacokinetic experiments in Beagles; type: in vivo; conditions: both sexes, beagle, dog, plasma, oral, 10 mg/kg, single administration
Quantity: Cmax

Compound: CCS(=O)(=O)N1CCC(CC#N)(n2cc(-c3ncnc4[nH]ccc34)cn2)CC1 [Compound of formula Ia]
Value measured: 2500 ng/mL

----------
IC50 overview
molecular target: JAK2 (Homo sapiens, UniProt O60674); test: Enzyme activity inhibition, Caliper Mobility Shift Assay; format: biochemical; conditions: read-out: Kinase inhibitory activity (IC50, nM) JAK2
Sequence (O60674 whole entry): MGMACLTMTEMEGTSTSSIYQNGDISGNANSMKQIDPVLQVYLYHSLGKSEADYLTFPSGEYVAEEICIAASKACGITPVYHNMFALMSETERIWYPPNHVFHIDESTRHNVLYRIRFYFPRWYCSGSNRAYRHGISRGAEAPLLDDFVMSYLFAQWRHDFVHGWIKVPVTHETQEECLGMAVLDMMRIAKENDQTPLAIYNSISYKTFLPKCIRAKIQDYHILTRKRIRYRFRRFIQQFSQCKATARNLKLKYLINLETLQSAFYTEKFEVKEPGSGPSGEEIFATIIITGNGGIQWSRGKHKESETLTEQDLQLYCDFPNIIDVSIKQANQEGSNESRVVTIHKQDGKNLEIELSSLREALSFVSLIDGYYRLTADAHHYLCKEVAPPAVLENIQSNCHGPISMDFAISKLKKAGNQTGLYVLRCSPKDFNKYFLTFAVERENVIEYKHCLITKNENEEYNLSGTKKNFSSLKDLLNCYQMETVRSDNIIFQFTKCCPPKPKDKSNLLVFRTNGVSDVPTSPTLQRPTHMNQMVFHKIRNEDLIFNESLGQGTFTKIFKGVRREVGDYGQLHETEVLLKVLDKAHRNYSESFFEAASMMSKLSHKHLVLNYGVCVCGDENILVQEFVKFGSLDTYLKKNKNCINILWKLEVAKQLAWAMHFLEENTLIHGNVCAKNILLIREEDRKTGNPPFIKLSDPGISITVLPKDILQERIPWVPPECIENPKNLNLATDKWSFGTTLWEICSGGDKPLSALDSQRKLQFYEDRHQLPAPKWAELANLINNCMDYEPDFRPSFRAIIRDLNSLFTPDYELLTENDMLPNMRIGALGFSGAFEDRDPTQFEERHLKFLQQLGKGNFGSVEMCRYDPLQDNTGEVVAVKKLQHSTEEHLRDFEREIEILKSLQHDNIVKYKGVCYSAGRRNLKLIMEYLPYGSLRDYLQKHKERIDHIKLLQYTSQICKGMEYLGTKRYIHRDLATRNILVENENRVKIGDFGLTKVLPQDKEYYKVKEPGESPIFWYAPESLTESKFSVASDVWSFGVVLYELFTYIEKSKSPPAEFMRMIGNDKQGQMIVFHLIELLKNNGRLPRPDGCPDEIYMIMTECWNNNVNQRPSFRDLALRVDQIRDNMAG
Quantity: IC50

Record smiles: CCS(=O)(=O)N1CCC(CC#N)(n2ccc(-c3ncnc4[nH]ccc34)c2)CC1
Value measured: 0.4 nM

Record smiles: CCS(=O)(=O)N1CCC(CC#N)(n2cc(-c3ncnc4[nH]ccc34)cn2)CC1
Value measured: 0.2 nM
